cell survival rate lower than that of YK-107 values by entry
System: 293T cells
Experiment: Cell survival rate determination (CCK-8)
Type: cell-based
Conditions: cell survival rate of YK-107 minus that of named substance
MEASUREMENT TYPE: cell survival rate lower than that of YK-107 (%)

MOLECULE: CCCCCCCCC(CCCCCCCC)OC(=O)CCCCCCCN(CCO)CCCCCCCC(=O)OCCC(CCCCCC)CCCCCC [Compound 21, reference compound]
REPORTED RESULT: 21.92

MOLECULE: CCCCCCCCCCOC(=O)CCCN(CCCCCC(=O)OCCC(CCCCCC)CCCCCC)CCC(C)O (centres unmarked) [YK-118]
REPORTED RESULT: 27.12

MOLECULE: CCCCCCCCCCOC(=O)CCCN(CCCCCC(=O)OCCC(CCCCCC)CCCCCC)C[C@H](C)O [YK-117]
REPORTED RESULT: 32.52

MOLECULE: CCCCCCCCCCOC(=O)CCCN(CCCCCC(=O)OCCC(CCCCCC)CCCCCC)C1CCCC1O (centres unmarked) [YK-120]
REPORTED RESULT: 17.02

MOLECULE: CCCCCCCCCC(=O)OCCCCN(CCO)CCCCCC(=O)OCC(CCCCCCCC)CCCCCCCC [YK-106]
REPORTED RESULT: 30.86

MOLECULE: CCCCCCCCCC(=O)OCCCCN(CCO)CCCCCC(=O)OCCC(CCCCCC)CCCCCC [YK-109]
REPORTED RESULT: 21.00

MOLECULE: CCCCCCCCCCOC(=O)CCCN(CCCCCC(=O)OCCC(CCCCCC)CCCCCC)CC(O)CO (centres unmarked) [YK-114]
REPORTED RESULT: 22.12

MOLECULE: CCCCCCCCCCOC(=O)CCCN(CCCCCC(=O)OCCC(CCCCCC)CCCCCC)C[C@@H](O)CO [YK-115]
REPORTED RESULT: 31.38
